Procedure Details: Primary salt screen: XRPD post temperature cycling/evaporation, post drying and post storage at 40° C./75% RH
Assay type: physicochemical
Cond: Compound A + 1.05 eq. counterion (= label); THF:Water (98:2 % v/v)
Assay Metric: XRPD results post temperature cycling and evaporation

O=C(O)/C=C\C(=O)O [Maleic acid]	A e
O=C(O)CC(O)(CC(=O)O)C(=O)O [Citric acid]	A e
O=C(O)CC(=O)O [Malonic acid]	A e
O=C(O)C(O)C(O)C(=O)O (stereo not drawn) [l-Tartaric acid]	A e
Cc1ccc(S(=O)(=O)O)cc1 [p-Toluenesulfonic acid]	A e
CS(=O)(=O)O [Methanesulfonic acid]	A e
O=S(=O)(O)c1ccccc1 [Benzenesulfonic acid]	S e
O=P(O)(O)O [Phosphoric acid]	S t

* * *

Procedure Details: Solvent solubility screen of Compound A (aliquot addition, HPLC of saturated solutions)
Type: physicochemical
Cond: ethanol:water (50:50% v/v), 40 °C, aqueous with cosolvent or surfactant or cyclodextrin, thermodynamic from solid, Ethanol:Water (50:50% v/v); read-out: Approximate Solubility
Assay Metric: solubility (µg/mL)

COc1cc(O[C@H]2C(C)(C)[C@H](NC(=O)c3ccc(N4CCC(CN5CCN(c6ccc(C(=O)N[C@H]7CCC(=O)NC7=O)c(F)c6)CC5)CC4)cc3)C2(C)C)ccc1C#N	19.2

* * *

Procedure Details: Primary salt screen: XRPD post temperature cycling/evaporation, post drying and post storage at 40° C./75% RH
Type: physicochemical
Cond: Compound A + 1.05 eq. counterion (= label); DCM; stored ca. 20 hours
Assay Metric: XRPD results post 40° C./75% RH

O=C(O)CCC(=O)O	C e h
O=C(O)C[C@H](O)C(=O)O	A e
N[C@@H](CCC(=O)O)C(=O)O	C e
O=C(O)CC(O)(CC(=O)O)C(=O)O	A e
O=P(O)(O)O	A t h
O=C(O)C(O)C(O)C(=O)O (stereo not shown)	A e
Cc1ccc(S(=O)(=O)O)cc1	A e
O=C(O)c1ccccc1	A e
O=C(O)CC(=O)O	A e
O=C(O)/C=C/C(=O)O	A e
CS(=O)(=O)O	A e
O=S(=O)(O)c1ccccc1	A e
O=C(O)/C=C\C(=O)O	A e

* * *

Procedure Details: Solvent solubility screen of Compound A (aliquot addition, HPLC of saturated solutions)
Type: physicochemical
Cond: DMSO, organic solvent or mixture, thermodynamic from solid, DMSO; read-out: solubility
Assay Metric: solubility

COc1cc(O[C@H]2C(C)(C)[C@H](NC(=O)c3ccc(N4CCC(CN5CCN(c6ccc(C(=O)N[C@H]7CCC(=O)NC7=O)c(F)c6)CC5)CC4)cc3)C2(C)C)ccc1C#N	> 100 mg/mL

* * *

Procedure Details: Solvent solubility screen of Compound A (aliquot addition, HPLC of saturated solutions)
Assay type: physicochemical
Cond: isopropyl acetate, organic solvent or mixture, thermodynamic from solid, Isopropyl acetate; read-out: Approximate Solubility
Protocol: A known volume aliquot (typically 5 volumes) of solvent was added to approximately 5 mg of Compound A. See Table 14 for the selected solvents for the solvent solubility screen. Between each addition, the mixture was checked for dissolution and where no dissolution was apparent, the mixture was heated to ca. 40° C. and checked again. […] Where dissolution was not observed, solids were isolated centrifugally and analyzed by XRPD. The saturated solutions were analyzed by HPLC to obtain the solubility.
Assay Metric: solubility (µg/mL)

COc1cc(O[C@H]2C(C)(C)[C@H](NC(=O)c3ccc(N4CCC(CN5CCN(c6ccc(C(=O)N[C@H]7CCC(=O)NC7=O)c(F)c6)CC5)CC4)cc3)C2(C)C)ccc1C#N	174

* * *

Procedure Details: Solvent solubility screen of Compound A (aliquot addition, HPLC of saturated solutions)
Assay type: physicochemical
Cond: DCM, organic solvent or mixture, thermodynamic from solid, DCM; read-out: solubility
Assay Metric: solubility

COc1cc(O[C@H]2C(C)(C)[C@H](NC(=O)c3ccc(N4CCC(CN5CCN(c6ccc(C(=O)N[C@H]7CCC(=O)NC7=O)c(F)c6)CC5)CC4)cc3)C2(C)C)ccc1C#N	50 to 100 mg/mL

* * *

Procedure Details: Thermodynamic solubility determination in buffers (HPLC)
Type: physicochemical
Cond: buffer, 25 °C, pH 3, aqueous buffer, thermodynamic from solid, Buffer pH 3.0, LOQ 0.00025 mg/mL
Assay Metric: solubility at 4 h

COc1cc(O[C@H]2C(C)(C)[C@H](NC(=O)c3ccc(N4CCC(CN5CCN(c6ccc(C(=O)N[C@H]7CCC(=O)NC7=O)c(F)c6)CC5)CC4)cc3)C2(C)C)ccc1C#N [tosylate Pattern 1]	< 0.25 µg/mL

* * *

Procedure Details: Primary salt screen: XRPD post temperature cycling/evaporation, post drying and post storage at 40° C./75% RH
Format: physicochemical
Cond: Compound A + 1.05 eq. counterion (= label); THF
Assay Metric: XRPD results post temperature cycling and evaporation

O=C(O)CC(=O)O [Malonic acid]	A e
O=C(O)C[C@H](O)C(=O)O [l-Malic acid]	A e
O=C(O)C(O)C(O)C(=O)O (stereo not drawn) [l-Tartaric acid]	A e
O=C(O)/C=C/C(=O)O [Fumaric acid]	A e
O=P(O)(O)O [Phosphoric acid]	S t
O=C(O)CC(O)(CC(=O)O)C(=O)O [Citric acid]	A e
O=S(=O)(O)c1ccccc1 [Benzenesulfonic acid]	A t
O=C(O)/C=C\C(=O)O [Maleic acid]	A e
Cc1ccc(S(=O)(=O)O)cc1 [p-Toluenesulfonic acid]	S t

* * *

Procedure Details: Solvent solubility screen of Compound A (aliquot addition, HPLC of saturated solutions)
Assay type: physicochemical
Cond: tetrahydrofuran:water (98:2% v/v), organic solvent or mixture, thermodynamic from solid, Tetrahydrofuran:Water (98:2% v/v); read-out: Approximate Solubility
Assay Metric: solubility (mg/mL)

COc1cc(O[C@H]2C(C)(C)[C@H](NC(=O)c3ccc(N4CCC(CN5CCN(c6ccc(C(=O)N[C@H]7CCC(=O)NC7=O)c(F)c6)CC5)CC4)cc3)C2(C)C)ccc1C#N	50

* * *

Procedure Details: Solvent solubility screen of Compound A (aliquot addition, HPLC of saturated solutions)
Assay type: physicochemical
Cond: 1,4-dioxane, organic solvent or mixture, thermodynamic from solid, 1,4-dioxane; read-out: solubility
Assay Metric: solubility

COc1cc(O[C@H]2C(C)(C)[C@H](NC(=O)c3ccc(N4CCC(CN5CCN(c6ccc(C(=O)N[C@H]7CCC(=O)NC7=O)c(F)c6)CC5)CC4)cc3)C2(C)C)ccc1C#N	> 100 mg/mL

* * *

Procedure Details: Thermodynamic solubility determination in buffers (HPLC)
Assay type: physicochemical
Cond: buffer, 25 °C, pH 4, aqueous buffer, thermodynamic from solid, Buffer pH 4.0, LOQ 0.00025 mg/mL
Assay Metric: solubility at 4 h

COc1cc(O[C@H]2C(C)(C)[C@H](NC(=O)c3ccc(N4CCC(CN5CCN(c6ccc(C(=O)N[C@H]7CCC(=O)NC7=O)c(F)c6)CC5)CC4)cc3)C2(C)C)ccc1C#N [free base Pattern 1]	< 0.25 µg/mL

* * *

Procedure Details: Solvent solubility screen of Compound A (aliquot addition, HPLC of saturated solutions)
Type: physicochemical
Cond: N,N′-dimethylacetamide, organic solvent or mixture, thermodynamic from solid, N,N′-Dimethylacetamide; read-out: Approximate Solubility
Procedure: A known volume aliquot (typically 5 volumes) of solvent was added to approximately 5 mg of Compound A. See Table 14 for the selected solvents for the solvent solubility screen. Between each addition, the mixture was checked for dissolution and where no dissolution was apparent, the mixture was heated to ca. 40° C. and checked again. […] Where dissolution was not observed, solids were isolated centrifugally and analyzed by XRPD. The saturated solutions were analyzed by HPLC to obtain the solubility.
Assay Metric: solubility (mg/mL)

COc1cc(O[C@H]2C(C)(C)[C@H](NC(=O)c3ccc(N4CCC(CN5CCN(c6ccc(C(=O)N[C@H]7CCC(=O)NC7=O)c(F)c6)CC5)CC4)cc3)C2(C)C)ccc1C#N	100

* * *

Procedure Details: Solvent solubility screen of Compound A (aliquot addition, HPLC of saturated solutions)
Format: physicochemical
Cond: methanol, organic solvent or mixture, thermodynamic from solid, Methanol; read-out: Approximate Solubility
Assay Metric: solubility (µg/mL)

COc1cc(O[C@H]2C(C)(C)[C@H](NC(=O)c3ccc(N4CCC(CN5CCN(c6ccc(C(=O)N[C@H]7CCC(=O)NC7=O)c(F)c6)CC5)CC4)cc3)C2(C)C)ccc1C#N	437

* * *

Procedure Details: Thermodynamic solubility determination in buffers (HPLC)
Format: physicochemical
Cond: buffer, 25 °C, pH 3, aqueous buffer, thermodynamic from solid, Buffer pH 3.0, LOQ 0.00025 mg/mL
Excerpt: No clear solubility advantage of the salts was noted over Compound A free base.
Assay Metric: solubility at 0 h

COc1cc(O[C@H]2C(C)(C)[C@H](NC(=O)c3ccc(N4CCC(CN5CCN(c6ccc(C(=O)N[C@H]7CCC(=O)NC7=O)c(F)c6)CC5)CC4)cc3)C2(C)C)ccc1C#N [tosylate Pattern 1]	< 0.25 µg/mL

* * *

Procedure Details: Solvent solubility screen of Compound A (aliquot addition, HPLC of saturated solutions)
Type: physicochemical
Cond: DCM:methanol (75:25% v/v), organic solvent or mixture, thermodynamic from solid, DCM:methanol (75:25% v/v); read-out: solubility
Assay Metric: solubility

COc1cc(O[C@H]2C(C)(C)[C@H](NC(=O)c3ccc(N4CCC(CN5CCN(c6ccc(C(=O)N[C@H]7CCC(=O)NC7=O)c(F)c6)CC5)CC4)cc3)C2(C)C)ccc1C#N	> 100 mg/mL
